List of IC50 values.
target: TACE (Homo sapiens, UniProt P78536)
Sequence (P78536 215-824): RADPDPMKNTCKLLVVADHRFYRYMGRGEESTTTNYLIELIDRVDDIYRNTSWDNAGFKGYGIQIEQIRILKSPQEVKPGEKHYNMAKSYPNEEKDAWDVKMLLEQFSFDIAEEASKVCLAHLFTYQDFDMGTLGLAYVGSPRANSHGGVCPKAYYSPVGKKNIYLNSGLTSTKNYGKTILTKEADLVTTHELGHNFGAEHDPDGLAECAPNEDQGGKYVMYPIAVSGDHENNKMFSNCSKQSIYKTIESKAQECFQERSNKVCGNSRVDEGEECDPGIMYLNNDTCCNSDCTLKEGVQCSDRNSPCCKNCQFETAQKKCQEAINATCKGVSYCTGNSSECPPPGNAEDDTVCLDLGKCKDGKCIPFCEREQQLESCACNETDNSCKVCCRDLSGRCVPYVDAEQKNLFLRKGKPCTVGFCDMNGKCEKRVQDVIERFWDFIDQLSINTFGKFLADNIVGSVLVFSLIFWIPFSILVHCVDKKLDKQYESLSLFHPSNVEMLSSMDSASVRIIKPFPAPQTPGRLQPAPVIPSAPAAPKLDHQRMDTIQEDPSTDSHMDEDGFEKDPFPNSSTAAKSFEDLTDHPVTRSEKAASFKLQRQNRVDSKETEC
Bridge positions count the residues as written; N and C are the ends. Peptide text beside a SMILES is read from it.
Field format: number, assumed nM, no unit text.

1) CC(C)C[C@@H]1NC(=O)[C@@H]2CSSC[C@H](NC(=O)[C@H](CO)NC(=O)[C@@H]3CSSC[C@H](NC1=O)C(=O)N[C@@H](CCCNC(=N)N)C(=O)N[C@@H](CCCNC(=N)N)C(=O)NCC(=O)N[C@@H](C(C)C)C(=O)N3)C(=O)N[C@@H](CCCNC(=N)N)C(=O)N[C@@H](CCCNC(=N)N)C(=O)N[C@@H](CCCNC(=N)N)C(=O)N[C@@H](Cc1ccccc1)C(=O)N2 [MTD12810] (cyclo(CLCRRGVCSCRRRF); disulfide 1-10, 3-8)	1540

Exercise: Suppose we examine the compound CC[C@H](C)[C@@H]1NC(=O)[C@@H]2CSSC[C@H](NC(=O)[C@H]([C@@H](C)CC)NC(=O)[C@@H]3CSSC[C@H](NC1=O)C(=O)N[C@@H](CCCNC(=N)N)C(=O)N[C@@H](CCCNC(=N)N)C(=O)NCC(=O)N[C@@H](C(C)C)C(=O)N3)C(=O)N[C@@H](CCCNC(=N)N)C(=O)N[C@@H](CCCNC(=N)N)C(=O)NCC(=O)N[C@@H](C(C)C)C(=O)N2 [MTD1281] (cyclo(CICRRGVCICRRGV); disulfide 1-10, 3-8) ; what IC50 value has been reported?
Key: 347

###

The following molecules each carry a recorded pIC50 for TACE (Homo sapiens, UniProt P78536).
Bridge positions count the residues as written; N and C are the ends. Peptide text beside a SMILES is read from it.
Convention used: pIC50 is expressed as -log10 of the molar concentration.

Exercise: Suppose we examine the molecule CC[C@H](C)[C@@H]1NC(=O)[C@@H]2CSSC[C@H](NC(=O)[C@H](CO)NC(=O)[C@@H]3CSSC[C@H](NC1=O)C(=O)N[C@@H](CCCNC(=N)N)C(=O)N[C@@H](CCCNC(=N)N)C(=O)NCC(=O)N[C@@H](C(C)C)C(=O)N3)C(=O)N[C@@H](CCCNC(=N)N)C(=O)N[C@@H](CCCNC(=N)N)C(=O)N[C@@H](CCCNC(=N)N)C(=O)N[C@@H](Cc1ccccc1)C(=O)N2 [MTD12811] (cyclo(CICRRGVCSCRRRF); disulfide 1-10, 3-8) ; what pIC50 value has been reported?
Key: 5.72

Exercise: Ok, now CC[C@H](C)[C@@H]1NC(=O)[C@@H]2CSSC[C@H](NC(=O)[C@H](CO)NC(=O)[C@@H]3CSSC[C@H](NC1=O)C(=O)N[C@@H](CCCNC(=N)N)C(=O)N[C@@H](CCCNC(=N)N)C(=O)N[C@@H](CCCNC(=N)N)C(=O)N[C@@H](Cc1ccccc1)C(=O)N3)C(=O)N[C@@H](CCCNC(=N)N)C(=O)N[C@@H](CCCNC(=N)N)C(=O)NCC(=O)N[C@@H](C(C)C)C(=O)N2 [MTD12812] (cyclo(CICRRRFCSCRRGV); disulfide 1-10, 3-8)
Key: 5.96

###

The following compounds each carry a recorded IC50 for TACE (Homo sapiens).
Bridge positions count the residues as written; N and C are the ends. Peptide text beside a SMILES is read from it.
Field format: number, assumed µM, no unit text.

Exercise: Can you look up IC50 on TACE (Homo sapiens) for CC[C@H](C)[C@@H]1NC(=O)[C@@H]2CSSC[C@H](NC(=O)[C@H](CC(C)C)NC(=O)[C@@H]3CSSC[C@H](NC1=O)C(=O)N[C@@H](CCCNC(=N)N)C(=O)N[C@@H](CCCNC(=N)N)C(=O)N[C@@H](CCCNC(=N)N)C(=O)N[C@@H](Cc1ccccc1)C(=O)N3)C(=O)N[C@@H](CCCNC(=N)N)C(=O)N[C@@H](CCCNC(=N)N)C(=O)NCC(=O)N[C@@H](C(C)C)C(=O)N2 [MTD1280] (cyclo(CICRRRFCLCRRGV); disulfide 1-10, 3-8) ?
Key: 1.28

Exercise: Ok, now CC(C)[C@@H]1NC(=O)CNC(=O)[C@H](CCCNC(=N)N)NC(=O)[C@H](CCCNC(=N)N)NC(=O)[C@@H]2CSSC[C@H](NC1=O)C(=O)N[C@@H](C)C(=O)N[C@H]1CSSC[C@H](NC(=O)[C@H](Cc3ccccc3)NC(=O)[C@H](CCCNC(=N)N)NC(=O)[C@H](CCCNC(=N)N)NC(=O)[C@H](C)NC1=O)C(=O)N[C@@H](C)C(=O)N2 [MTD12815] (cyclo(ACARRFCACRRGVC); disulfide 2-7, 9-14)
Key: 1.18

Exercise: Ok, now CC[C@H](C)[C@@H]1NC(=O)[C@@H]2CSSC[C@H](NC(=O)[C@H](CC(C)C)NC(=O)[C@@H]3CSSC[C@H](NC1=O)C(=O)N[C@@H](CCCNC(=N)N)C(=O)N[C@@H](CCCNC(=N)N)C(=O)N[C@@H](CCCNC(=N)N)C(=O)N[C@@H](Cc1ccccc1)C(=O)N3)C(=O)N[C@@H](CCCNC(=N)N)C(=O)N[C@@H](CCCNC(=N)N)C(=O)NCC(=O)N[C@@H](C)C(=O)N2 [MTD1286] (cyclo(ACICRRRFCLCRRG); disulfide 2-11, 4-9)
Key: 0.305
